kon for assorted binders
biological target: T1, recombinant human CD3 epsilon/gamma heterodimer (human, UniProt P07766 23-126; P09693 23-116); test: BLI (Octet), mAb 5 ug/mL on FAB2G sensor, hCD3 E/G 200-50 nM;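 also: antibodies purified from hybridoma supernatants, measured by Octet binding to recombinant human CD3 protein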
T1 construct: Recombinant heterodimer used as analyte in Octet; also called hCD3 E/G
T1 sequence (P07766 23-126, chain 1 of 2): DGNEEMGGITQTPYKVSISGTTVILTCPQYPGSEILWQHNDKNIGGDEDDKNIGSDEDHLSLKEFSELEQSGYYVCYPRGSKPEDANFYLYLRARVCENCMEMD
T1 sequence (P09693 23-116, chain 2 of 2): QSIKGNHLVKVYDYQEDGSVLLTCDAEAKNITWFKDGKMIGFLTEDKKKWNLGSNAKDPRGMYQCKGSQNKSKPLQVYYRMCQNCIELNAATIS
Put your answer as a value accompanied by its unit after it.

Look over these answered cases.
Please give measured kon of the following entry: ABL-CD3-70 (antibody, V domains shown, mAb purified from hybridoma; chimeric AlivaMab IgG (human VH, CH1 and upper hinge; mouse middle hinge, CH2, CH3; human light chain)) VH: EVQLVESGGGLVKPGGSLRLSCAASGFTFSTYIMNWVRQAPGKGLEWVSSITSSSSYIYYADSVKGRFTISRDNAKNSLYLQMNSLRAEDTAVYYCAREKWELLFFDYWGQGTLVTVSS VL: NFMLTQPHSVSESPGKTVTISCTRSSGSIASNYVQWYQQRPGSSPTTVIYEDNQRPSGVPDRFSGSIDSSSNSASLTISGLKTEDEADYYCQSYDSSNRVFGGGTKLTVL
697000 M⁻¹ s⁻¹

Please give measured kon of the following entry: ABL-CD3-71 (antibody, V domains shown, mAb purified from hybridoma; chimeric AlivaMab IgG (human VH, CH1 and upper hinge; mouse middle hinge, CH2, CH3; human light chain)) VH: QVQLQESGPGLVKPSETLSLTCTVSGGSINSYYWSWIRQPAGKGLEWIGRIYTSGSTNYNPSLKSRVTMSVDTSKKQFSLKLSSVTAADTAVYYCARERISRLYFDYWGQGILVTVSS VL: NFMLTQPHSVSESPGKTVTISCTRSSGSIASNYVQWYQQRPGSSPTTVIYEDNQRPSGVPDRFSGSIDSSSNSASLTISGLKTEDEADYYCQSYDRSNRVFGGGTKLTVL
598000 M⁻¹ s⁻¹

Please give measured kon of the following entry: ABL-CD3-78 (antibody, V domains shown, mAb purified from hybridoma; chimeric AlivaMab IgG (human VH, CH1 and upper hinge; mouse middle hinge, CH2, CH3; human light chain)) VH: EVQLVESGGGLVKPGGSLRLSCAASGFTVSNYSMNWVRQAPGKGLEWVSCISRSSSYIYYADSVKGRFTISRDNAKNSLFLQMNSLRAEDTAVYYCARERWELLYFDYWGQGTLVTVSS VL: NFMLTQPHSVSESPGKTVTISCTRSSGSIASNYVQWYQQRPGSSPTTVIYEDNQRPSGVPDRFSGSIDSSSNSASLTISGLKTEDEADYYCQSFDGSNRVFGGGTKLTVL
73500 M⁻¹ s⁻¹

Please give measured kon of the following entry: ABL-CD3-86 (antibody, V domains shown, mAb purified from hybridoma; chimeric AlivaMab IgG (human VH, CH1 and upper hinge; mouse middle hinge, CH2, CH3; human light chain)) VH: EVQLVESGGGLVKPGGSLRLSCAASGFTFSRYSMNWVRQAPGKGLEWVSTISRSSRYIYYGDSVKGRFTISRDNAKNSLLLQMNSLRAEDTAVYYCARDHNWSFDYWGKGILVTVSS VL: NFMLTQPLSVSESPGKTLTISCTRNSGSIASNYVQWYRQRPGSSPTTVIYEDKQRPSGVPDRFSGSIDSSSNSASLTISGLKAEDEADYYCQSCDSSNVVFGGGTTLTVL
158000 M⁻¹ s⁻¹

Next up:
Please give measured kon of the following entry: ABL-CD3-81 (antibody, V domains shown, mAb purified from hybridoma; chimeric AlivaMab IgG (human VH, CH1 and upper hinge; mouse middle hinge, CH2, CH3; human light chain)) VH: QVQLQESGPGLVKPSQTLSLTCTVSGGSISSGGYYWSWIRQHPGKGLEWIGYIYYSGSTYYNPSLKSRVTISVDTSKDQFSLKLSSVTAADTAVYYCARERKTSLPFDIWGQGTMVTVSS VL: NFMLTQPHSVSESPGKTVTISCTRSSGSIASNYVQWYQQRPGSSPTTVIYEDNQRPSGVPDRFSGSIDSSSNSASLTISGLKTEDEAYYYCQSFDSSNRVFGGGTKLTVL
759000 M⁻¹ s⁻¹

Data provenance is patent US20260167721A1.
